# TARGET OR SYSTEM: panel of 255 wild-type kinases (Homo sapiens, UniProt O14920)
# Sequence (O14920 1-756): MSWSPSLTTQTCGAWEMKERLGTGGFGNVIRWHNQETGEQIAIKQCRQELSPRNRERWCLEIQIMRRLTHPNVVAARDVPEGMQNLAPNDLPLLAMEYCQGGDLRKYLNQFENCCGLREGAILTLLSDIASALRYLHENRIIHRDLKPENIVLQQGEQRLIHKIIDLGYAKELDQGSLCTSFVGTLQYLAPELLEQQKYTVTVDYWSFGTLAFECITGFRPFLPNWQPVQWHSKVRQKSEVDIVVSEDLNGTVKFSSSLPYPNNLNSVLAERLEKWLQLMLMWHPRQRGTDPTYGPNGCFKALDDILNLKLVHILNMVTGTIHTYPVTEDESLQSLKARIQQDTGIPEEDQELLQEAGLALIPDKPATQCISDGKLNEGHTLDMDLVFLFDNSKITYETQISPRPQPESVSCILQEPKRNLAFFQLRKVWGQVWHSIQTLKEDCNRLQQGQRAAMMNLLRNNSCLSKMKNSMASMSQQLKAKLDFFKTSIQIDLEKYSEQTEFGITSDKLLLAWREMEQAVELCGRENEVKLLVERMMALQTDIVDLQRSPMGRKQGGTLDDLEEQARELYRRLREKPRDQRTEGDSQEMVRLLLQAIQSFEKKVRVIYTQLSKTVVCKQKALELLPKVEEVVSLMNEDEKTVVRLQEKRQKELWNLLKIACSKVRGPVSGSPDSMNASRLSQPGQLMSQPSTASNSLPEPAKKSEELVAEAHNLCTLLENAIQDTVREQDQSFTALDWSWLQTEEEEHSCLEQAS
# RUN DESCRIPTION: Kinase panel profiling at 1 µmol/L (MSA or IMAP), percentage inhibition
# Format: biochemical
# STATED CONDITIONS: kinase IKKβ; 1 µmol/L single concentration; read-out: %-inhibition at 1 µmol/L, IKKβ
In this section we review reported inhibition at 1 µM values for a set of compounds.
Use % as the unit, but write only the number.

> print(dat)
                                   compound  reported.result
1  C[C@H]1Oc2cc(cnc2N)-c2c(nn(C)c2C#N)CN(C)C(=O)c2ccc(F)cc21 [lorlatinib]           -0.377
2  Cc1cc(Nc2ncnc3ccc(NC4=NC(C)(C)CO4)cc23)ccc1Oc1ccn2ncnc2c1 [tucatinib]                1
3  Cn1cnc2c(F)c(Nc3ccc(Br)cc3Cl)c(C(=O)NOCCO)cc21 [selumetinib]             1.34
4  CCN1C(=O)N(c2c(F)c(OC)cc(OC)c2F)Cc2cnc3[nH]c(CN4CCOCC4)cc3c21 [pemigatinib]            -1.22

Now for a further compound.
Q. Form entry - test system: panel of 255 wild-type kinases (Homo sapiens, UniProt O14920); read-out: inhibition at 1 µM; compound: CCN1CCN(c2ccc(Nc3cc(N(C)C(=O)Nc4c(Cl)c(OC)cc(OC)c4Cl)ncn3)cc2)CC1 [infigratinib]
A. 0.304

Sourced from paper PMC9516332
